Recorded growth for the following compounds
Test system: NCI-H322M lung
Experiment: NCI-60 one-dose screen, 48 h (100 = growth as untreated, 0 = no growth, -100 = all killed)
Run conditions: 10 µM unless noted
The panel holds about 83,000 compounds, 20% with a hit somewhere; the sample as a whole holds those more often.
Metric: growth (%)

Cc1ccc2oc(=O)cc(C3C(C#N)=C(N)Oc4c3ccc3ccccc43)c2c1 (stereo not given) ... 89.2
Cc1ccc(-c2nc3c(N=Nc4ccc(S(N)(=O)=O)cc4)c(N)nn3c(N)c2C#N)cc1 ... 66.1
O=C(O)c1ccc(-n2cc(/C=N/Nc3ccc(F)cc3)c(-c3cccc(C(F)(F)F)c3)n2)cc1 ... 76.5
Fc1cccc(F)c1C#Cc1ccc2cccnc2c1 ... 89.8
C=C1C(=O)O[C@H]2[C@H]1CC/C(COC(=O)n1ccnc1C)=C\CC[C@@]1(C)O[C@@H]21 ... 98.3

###

System: SK-MEL-28 melanoma
Experiment: NCI-60 one-dose screen, 48 h (100 = growth as untreated, 0 = no growth, -100 = all killed)
Run conditions: 10 µM unless noted
About 83,000 compounds went through this panel and 20% of them were active in at least one assay; those are over-represented in the sample as a whole.
# label = satisfied if growth >= 80% else not satisfied

C=C1C(=O)O[C@H]2[C@H]1CC/C(COC(=O)c1ccc(C#N)cc1)=C\CC[C@@]1(C)O[C@@H]21 ... not satisfied
C#CCn1c(-c2cc(OC)c(OC)cc2Br)nc(-c2ccccc2)c1-c1ccccc1 ... not satisfied
C=C1C(=O)O[C@H]2[C@H]1CC/C(C(=O)NCCOCCOCC(=O)Nc1ccc(OC)c(C(N)=O)c1O)=C\CC[C@@]1(C)O[C@@H]21 ... satisfied
CC(C)(C)OC(=O)N1CC(Cn2cc(C(F)(F)F)c3c(Cl)ncnc32)C1 ... not satisfied
Cc1ccc(-c2nc3c(N=Nc4ccc(S(N)(=O)=O)cc4)c(N)nn3c(N)c2C#N)cc1 ... not satisfied
CN(C)CCS(=O)(=O)Nc1cc(-c2ccc3ncnc(Nc4ccc(F)c(Cl)c4)c3c2)cnc1Cl ... not satisfied
C[C@H]1C=C(C[C@@H](O)CC#CC#CCCCCC[C@@H](O)[C@H]2CCC(=O)O2)C(=O)O1 ... satisfied
O=C(Nc1ccccc1F)Nc1ccccc1Cl ... satisfied
Cc1ccc2oc(=O)cc(C3C(C#N)=C(N)Oc4c3ccc3ccccc43)c2c1 (stereo unspecified) ... satisfied
O=C(Nc1cccc(-n2ccc3c(NC(=O)c4ccccc4)nccc32)c1)c1cccc(C(F)(F)F)c1 ... not satisfied
CC(=O)c1ccc2c(c1)C1C=CCC1[C@H](c1cc3c(cc1Br)OCO3)N2 (stereo partly specified) ... not satisfied
O=C(Nc1ccc(-n2ccc3c(NC(=O)c4ccccc4)ncnc32)cc1)c1ccc(Cl)c(C(F)(F)F)c1 ... not satisfied
CC(C)(c1ccc(OCC(O)CNCc2ccco2)cc1)c1ccc(OCC(O)CNCc2ccco2)cc1 (stereo unspecified) ... satisfied
CCN1CCN(Cc2ccc(NC(=O)Nc3cccc(-n4ccc5c(NC(=O)c6ccccc6)nccc54)c3)cc2C(F)(F)F)CC1 ... satisfied
C=C1C(=O)O[C@H]2[C@H]1CC/C(COC(=O)OC/C1=C/CC[C@@]3(C)O[C@H]3[C@H]3OC(=O)[C@@H](CN(C)C)[C@@H]3CC1)=C\CC[C@@]1(C)O[C@@H]21 ... not satisfied
COc1ccc(NC(=O)COCCOCCNC[C@@H]2C(=O)O[C@H]3[C@H]2CC/C(COC(=O)OC/C2=C/CC[C@@]4(C)O[C@H]4[C@H]4OC(=O)[C@@H](CN(C)C)[C@@H]4CC2)=C\CC[C@@]2(C)O[C@@H]32)c(O)c1C(N)=O ... not satisfied
